System: MDA-MB-231 breast
Assay: NCI-60 one-dose screen, 48 h
Conditions: 10 µM unless noted
Protocol: Cells are grown in 96 well plates and exposed to the test compound for 48 hours. Compounds are tested at a single concentration, which is 10^-5 M for most compounds. The reported endpoint is percent growth (GI% or GIPRCNT), where numbers from 0 - 100% represent growth inhibition, and numbers from -100% - 0 represent cell death. For example, a value of 40 represents 60% growth inhibition. A value of 0 means no net growth occurred over the course of the experiment. […]
Compounds without any hit were thinned out: in the full panel of roughly 83,000, 20% have a hit. Activity calls are given as the source filed them. How the source made its calls: active means growth percent below 10; inactive means the rest.
Possible outcomes: active, inactive

molecule	cat
Cc1nccc2c3ccc(OCc4cn(-c5ccc(Cl)cc5)nn4)cc3n(CC(C)C)c12	inactive
Nc1c(C(=O)Nc2ccccn2)sc2nc3c(cc12)CCCC3	inactive
O=C1NC(SCc2ccc(F)cc2)=N/C1=C/c1cccc(OCc2ccc(Cl)cc2)c1	inactive
O=[N+]([O-])c1ccc(N=Nc2c(O)c(N=Nc3cc([N+](=O)[O-])cc([N+](=O)[O-])c3O)cc(N=Nc3cc(S(=O)(=O)O)cc4cc(S(=O)(=O)O)cc(O)c34)c2O)cc1	inactive
Cc1c(Br)cccc1NC(=O)c1sc2nc3c(cc2c1N)CN(Cc1ccccc1)CC3	inactive
CC(=O)c1cnc(-c2ccccc2)nc1CBr	inactive
C=C1C(=O)O[C@H]2[C@H]1CC/C(C=Nc1c(N)cc(C(F)(F)F)cc1Br)=C\CC[C@@]1(C)O[C@@H]21	active
COc1ccc(-c2cc(-c3nnc(SCC(=O)Nc4ccc(/C(C)=N\O)cc4)o3)c3ccccc3n2)cc1	inactive
C=C(C)[C@@H]1CCC=C2CC[C@]3(C)[C@H](CC[C@@H]4[C@@]5(C)CCCNC(C)(C)[C@@H]5CC[C@]43C)[C@H]21	active
CCc1n(Cc2ccc3ccccc3c2)c2ccccc2[n+]1Cc1ccc2ccccc2c1	inactive
C=C(C)[C@@H]1CC[C@]2(C(=O)n3ccnc3)CC[C@]3(C)[C@H](CC[C@@H]4[C@@]5(C)CCCNC(C)(C)[C@@H]5CC[C@]43C)[C@@H]12	inactive
O=C(CCl)N1CCCc2ccccc21	inactive
COc1ccc(-c2cn(-c3ccc(Cl)cc3)c(=S)[nH]2)cc1OC	inactive
O=C1CCC23OC(C(O)c4ccccc4N12)C1C(Br)=NOC13 (stereo unspecified)	inactive
C=C1C(=O)O[C@H]2[C@H]1CC/C(COC(=O)c1cn(C)c3ccccc13)=C\CC[C@@]1(C)O[C@@H]21	active
COc1ccc2c(c1)OC13Oc4cc(OC)ccc4C=C1CCCCC3=C2	inactive
COC(=O)/C=C1\SC(=Nc2ccc(F)cc2)N(CCc2c[nH]c3ccccc23)C1=O	inactive
Cc1cc2ccccc2c[n+]1CC(=O)c1ccc(-c2ccccc2)cc1	inactive
CCC[S@@](=O)c1ccc2nc(NC(=O)OC)[nH]c2c1	inactive
CC(C)Cc1cc(CNC(=O)C2[C@H]3CN(C(=O)c4ccccc4)C[C@@H]23)nn1-c1ccccc1 (stereo partly specified)	inactive
Cc1nccc2c3ccc(OCc4cn(-c5ccc(Br)cc5)nn4)cc3n(CC(C)C)c12	inactive

* * *

system: NCI-H226 lung; assay: NCI-60 one-dose screen, 48 h (100 = growth as untreated, 0 = no growth, -100 = all killed); conditions: 10 µM unless noted
Compounds without any hit were thinned out: in the full panel of roughly 83,000, 20% have a hit. Activity calls are given as the source filed them. How the source made its calls: active means growth percent below 10; inactive means the rest.

compound	growth
CCOc1ccc(C2N(c3cc(OC)c(OC)c(OC)c3)C(=O)C2(F)F)cc1 (configuration not stated)	71% (inactive)
COc1ccc(N(C)c2nc(Cl)nc3ccn(C)c23)cc1	30.3% (inactive)
COc1cc(NCC(=O)Nc2cc(Nc3ccc(C)cc3)ncn2)c(Cl)c(OC)c1Cl	85.4% (inactive)
O=C1NC(SCc2ccc(F)cc2)=N/C1=C/c1cccc(OCc2ccc(Cl)cc2)c1	-7.92% (active)
c1ccc2nc(N3CCOCC3)c(N3CCCCC3)nc2c1	95.8% (inactive)
CC[C@]12C=CCN3CC[C@@]4(c5cc(NC(=O)CCC(=O)O[C@H]6CC[C@H]7[C@@H]8CC[C@H]9CC(=O)CC[C@]9(C)[C@H]8CC[C@]67C)c(OC)cc5N(C)[C@H]4[C@@](O)(C(=O)OC)[C@@H]1OC(C)=O)[C@@H]32	70.9% (inactive)
CCOC(=O)C1=C(C)n2nc(CC#N)c(C#N)c2NC1c1ccc(Cl)cc1 (configuration not stated)	81.8% (inactive)
CCCCCOC(=O)c1ccccc1O	97.8% (inactive)
c1ccc(-c2cn3ccnc3c(-c3ccc4c(c3)ncn4C3CCCCC3)n2)cc1	106% (inactive)
CCc1n(Cc2ccc3ccccc3c2)c2ccccc2[n+]1Cc1ccc2ccccc2c1	64.9% (inactive)
O=C(Nc1ccc2ncnc(Nc3ccc(F)c(Cl)c3)c2c1)c1ccccc1	72.2% (inactive)
CC(=O)ON1CCCC(P(=O)(OCOC(=O)C(C)(C)C)OCOC(=O)C(C)(C)C)C1=O (configuration not stated)	-4.94% (active)
Cc1nc2sc(C(=O)Nc3cccc(Cl)c3C)c(N)c2cc1C(C)O (configuration not stated)	95.8% (inactive)
CCOC(=O)c1c(C(F)(F)F)n([O-])c2ccc(Cl)cc2[n+]1=O	3.03% (active)
Cc1nnc(/N=C2\NC(=O)/C(=C/c3ccsc3)S2)s1	96% (inactive)
Cc1ccccc1NC(=O)c1sc2nc(C)c(C(C)O)cc2c1N (configuration not stated)	88.6% (inactive)
COc1ccc2[nH]c(=O)c(/C=C/C(=O)c3ccccc3OC)cc2c1	38.9% (inactive)
CCOc1ccccc1C(=O)/C=C/c1cc2ccccc2[nH]c1=O	8.19% (active)
CC[C@H](Nc1ncnc2nc[nH]c12)c1nc2cccc(CC(=O)c3ccc(C(=O)NO)cc3)c2c(=O)n1-c1ccccc1	84.9% (inactive)
COc1ccc(Nc2nc(SCC(C)C)nc(-c3ccc(F)cc3)c2C#N)cc1	75.1% (inactive)
CCN1CCN(c2ccc(NC(=O)Nc3nc4ccc(-c5ccccc5OC)cc4s3)cc2)CC1	56.6% (inactive)
C=C1C(=O)O[C@H]2[C@H]1CC/C(COC(=O)n1ccnc1)=C\CC[C@@]1(C)O[C@@H]21	92.4% (inactive)
O=CN1N=C(c2ccc(F)cc2)CC1c1cccc(Nc2ccnc3cc(C(F)(F)F)ccc23)c1 (configuration not stated)	60.3% (inactive)
O=C(O)c1ccc(-n2cc(/C=N/Nc3ccc(Cl)cc3Cl)c(-c3ccccc3)n2)cc1	88.6% (inactive)
CC(C)C[C@H](C(=O)O)N(C)C(=O)[C@@H]1CCCN1C(=O)[C@H](C)OC(=O)[C@H](CCC(N)=O)NC(=O)[C@@H]1CCC(=O)N1	101% (inactive)
CN(C)CCCn1c2c(c3cc(-c4cccc(S(N)(=O)=O)c4)ccc3c1=O)C(=O)c1ccccc1-2	77.8% (inactive)
COc1ccc(-c2[nH]c3ccc(OC)cc3c2C=C(C#N)C#N)cc1	59.7% (inactive)
Cc1ccc(C(=O)/C(=C/c2ccc([N+](=O)[O-])cc2)S(=O)Cc2ccccc2)cc1 (configuration not stated)	47.1% (inactive)
C#Cc1ccccc1NC(=O)c1sc2nc3c(cc2c1N)CCCCCC3	83.4% (inactive)
CNc1cccc2c1C(=O)c1cccc(N)c1C2=O	82.4% (inactive)
C#C[C@@]1(O)[C@@H](CO)O[C@@H](n2cc(F)c3c(N)ncnc32)[C@@H]1O	-62.3% (active)
Cc1cc(C)n(-c2nc(-c3cccs3)c(C#N)c(=O)[nH]2)n1	105% (inactive)

* * *

system: HS 578T breast; assay: NCI-60 one-dose screen, 48 h (100 = growth as untreated, 0 = no growth, -100 = all killed); conditions: 10 µM unless noted
Compounds without any hit were thinned out: in the full panel of roughly 83,000, 20% have a hit.

molecule	growth (%)
O=c1[nH]c(-c2cccc(F)c2)cc2cc(F)ccc12	34.7
COc1cc(/C=C/CO)cc(OC)c1O[C@@H]1O[C@H](CO)[C@@H](O)[C@H](O)[C@H]1O	96.4
CC(=O)c1ccc(NC(=O)CSc2nnc(-c3cc(-c4ccc(C)cc4)nc4ccccc34)o2)cc1	23.3
Nc1ccc(C2=NN(C(=O)c3cc(-c4ccc(Cl)cc4)nc4ccccc34)C(c3ccccc3)C2)cc1 (stereo not given)	29.4
C[C@H]1[C@H](C)CC[C@]2(C(=O)OCCOCCOCC[P+](c3ccccc3)(c3ccccc3)c3ccccc3)CC[C@]3(C)C(=CC[C@@H]4[C@@]5(C)CC[C@H](OC(=O)C(Cl)Cl)C(C)(C)[C@@H]5CC[C@]43C)[C@H]12	38.4
c1ccc(-c2n(Cc3ccc4ccccc4n3)cc[n+]2Cc2ccc3ccccc3n2)cc1	60.4
CN1CCN(C(=O)[C@@]2(C)CC[C@]3(C)CC[C@]4(C)C(=CC[C@@H]5[C@@]6(C)CC[C@H](OC(=O)c7cccnc7)C(C)(C)[C@@H]6CC[C@]54C)[C@@H]3C2)CC1	76.8
Nc1cc(N)nc(SCC(=O)O)n1	99.6
CCC1=C[C@H]2CN(CCc3c([nH]c4ccccc34)[C@@](C(=O)OC)(c3cc4c(cc3OC)N(C)[C@H]3[C@@](O)(C(=O)OC)[C@H](OC(C)=O)[C@]5(CC)[C@@H]6C[C@@H]6CN6CC[C@]43[C@@H]65)C2)C1	10.8
O=C(CCCC(=O)Nc1ccc(-n2nnc3cc(Cl)c(Cl)cc32)cc1)Nc1ccc(-n2nnc3cc(Cl)c(Cl)cc32)cc1	49.8
